target entity: IDO1 (Homo sapiens)
Construct: BxPC3 cells were seeded in phenol red-free RPMI 1640 medium; endogenous in cells; host or cells: BxPC3 cells stimulated with IFN-γ (50 ng/mL)
Sequence (P14902 whole entry): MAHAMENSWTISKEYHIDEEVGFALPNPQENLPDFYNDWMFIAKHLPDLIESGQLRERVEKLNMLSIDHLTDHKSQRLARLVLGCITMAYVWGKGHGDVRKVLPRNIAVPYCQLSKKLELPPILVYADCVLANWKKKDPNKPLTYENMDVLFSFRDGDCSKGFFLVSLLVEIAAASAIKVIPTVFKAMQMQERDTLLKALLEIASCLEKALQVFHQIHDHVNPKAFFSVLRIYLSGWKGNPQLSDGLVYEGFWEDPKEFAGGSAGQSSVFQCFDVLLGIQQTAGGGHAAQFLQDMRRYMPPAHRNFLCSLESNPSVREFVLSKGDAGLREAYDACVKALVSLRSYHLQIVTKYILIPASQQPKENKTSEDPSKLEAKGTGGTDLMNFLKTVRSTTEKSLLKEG
method summary: Kyn assay in BxPC-3 cells (Kyn levels after IFN-γ and Trp);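 further: kyn levels expressed relative to DMSO-treated control cells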
Assay type: cell-based
measurement context: BxPC-3 cells incubated with IFN-γ, Trp and the compounds for 48 h; read-out: Kyn assay IC50 ± SD
pIC50: −log10 of the molar value.
Exercise: state measured pIC50 for each of the molecules provided.

For orientation, consider the following solved cases.
| molecule | property measured | recorded value |
| --- | --- | --- |
| CCc1cc(C(C)(C)C)ccc1S(=O)(=O)N1C[C@H]2C[C@H]3C[C@H](C3(C)C)[C@@]2(COC(=O)Nc2ccc(I)cc2)C1 [compound 53] | pIC50 | > 6.70 |
| CC(C)(C)c1ccc(S(=O)(=O)N2C[C@H]3C[C@H]4C[C@H](C4(C)C)[C@@]3(COC(=O)Nc3ccc(Cl)cc3)C2)cc1 [compound 9] | pIC50 | 6.00 to 6.70 |

Could you now look at the following molecule, please?
Item under review: Cc1ccc(NC(=O)OC[C@]23CN(S(=O)(=O)c4ccc(C(C)(C)C)cc4)C[C@H]2C[C@H]2C[C@@H]3C2(C)C)cc1 [compound 1] . Reported pIC50?
6.00 to 6.70

----------
target entity: IDO1 (Homo sapiens)
Construct: BxPC3 cells were seeded in phenol red-free RPMI 1640 medium; endogenous in cells; host or cells: BxPC3 cells stimulated with IFN-γ (50 ng/mL)
method summary: IDO1 degradation in BxPC3 cells, IDO1 protein levels by immunoblotting;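 further: IDO1 bands on Western blots detected with fluorescent dye-labelled secondary antibodies and quantified by band intensity, values are means of n biological replicates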
Assay type: cell-based
measurement context: BXPC-3, BxPC3 cells, 50 ng/ml IFN-γ 24 h, washout, compound (100 nM) 24 h; maximum IDO1 degradation at 0.1 µM
Could you please report measured Dmax at 0.1 µM for the items listed next?

| molecule | Dmax at 0.1 µM |
| --- | --- |
| Cc1cc(C(C)(C)C)ccc1S(=O)(=O)N1C[C@H]2C[C@H]3C[C@H](C3(C)C)[C@@]2(COC(=O)Nc2ccc(I)cc2)C1 [compound 52] | > 60% |
| CCc1cc(C(C)(C)C)ccc1S(=O)(=O)N1C[C@H]2C[C@H]3C[C@H](C3(C)C)[C@@]2(COC(=O)Nc2ccc(I)cc2)C1 [compound 53] | 55 to 59% |
| COc1cc(C(C)(C)C)ccc1S(=O)(=O)N1C[C@H]2C[C@H]3C[C@H](C3(C)C)[C@@]2(COC(=O)Nc2ccc(I)cc2)C1 [compound 55] | 55 to 59% |

Report Dmax at 0.1 µM for CC(C)(C)c1ccc(S(=O)(=O)N2C[C@H]3C[C@H]4C[C@H](C4(C)C)[C@@]3(COC(=O)Nc3ccc(I)cc3)C2)c(I)c1 [compound 57] please.
55 to 59%
